Entry source: the nanobody polyreactivity screen of Harvey et al. (2022)

- ASSAY INFO: yeast display, Sf9 membrane polyspecificity reagent, FACS + sequencing; frameworks hold sequencing errors
PROPERTY: polyreactivity (PSR sort gate)

Previously resolved entries follow.
MONOMER SEQUENCE	RESULT
QVQLVESGGGFVQAGGSLRLRCAASGRTFGWYAMGWYRQAPGKERELVAAITWRGGSTYYADSVKGRFTISRDNAKNTVYLQMNSLKPEDTAVYYCAAAAEKRSYYWGQGTQVTVSS	high polyreactivity
QVQLVESGGGLVQAGGSLRLSCAASGIIFLVNAMGWYRQAPGKESELVATITSGGSTYADSVKGRFTISRDNAKYTVYLQMNSLKPEDTAVYYCAAVRRRRNSYGYWGQGTQVTVSS	high polyreactivity
KVQLVESGGGLVQAGGSLRISCAASGIIFLGYAMGWYRQAPGKERELVAGISSRGGSTYYADSVKGRFTISRDNAKNTVYLQMNSLKPADSAVYYCAAVSRGSGRDYWGQGTQVTVSS	high polyreactivity
QVQLVESGGGLVQAGGSLRLSCAASGNIRYYAMGWYRQAPGKERELVAAITRRSGNTYYADSVKGRFTISRDNAKNTVYLQMNSLKPEDTAVYYCAVVLYTYLTPYYEMDYWGQGTQVTVSS	high polyreactivity
QVQLVESGGGLVQAGGSLRLSCAASGRTLVKYAMGWYRQAPGKERELVAAITQRGGITYYADSVKGRFTISRDNAKNTVYLQMNSLKPEDTAVYYFAASLYSYRSPYTFYYWGQGTQVTVSS	high polyreactivity

Problem: Returns the measured polyreactivity (PSR sort gate) for the input sequence. Input: QVQLVESGVGLVQAGGSLRLSCAASGRIFPGNVMGWYIQAPGKERELVAAISRGGGSTYYADSVKGRFTISRDIAKNTVYAQMNSLKPEDTAVYYCNVLRYQSRFRYDYWGLGTQVTVSS
Solution: high polyreactivity

Problem: Which polyreactivity (PSR sort gate) is listed for QVQLVESGGGLVQAGGSLRLSCAASGRIFVSNGMGWYRQAPGKERELVAVIRYSTGSTYYADSVKGRFTFSRDNAKTTVYLQMNCLKPEDTAVYYCAARNPFFEPSEYDYWGQGTQVTVSS ?
Solution: low polyreactivity

Problem: Entry QVQLVESGGGLVQAGGSLRLSCDASGLTFSFYVMGWYRQAPVKERELVAAISRSGTSTYYSDSVKGRFTISRDNAKNTVYLQMNSLKPEDTAVYYCADRGRWLYYLYELDYWGQGTQVTESS has what polyreactivity (PSR sort gate)?
Solution: high polyreactivity

Problem: Using the record for QVQLVESGGGLVQAGGSLRLSCAATGLTFYLNAMGWYRQAPGKEREFVAAINYSVGSTYYADSVKGRFTISRDNAKNTVYLQMNSLKPEDTAVFYCAADGYLYFKVDNEYWGQGTQVTVSS , report its polyreactivity (PSR sort gate).
Solution: low polyreactivity

Problem: Bench note: what polyreactivity (PSR sort gate) did QVHLVESVGGLVQAGGSLRLSCAASGRTFHYYAMGWYRQAPGKERELVAGITGGGSTYYADSVKGRFTISRDNAKNTVYLQMNSLKPEDTAVYYCAADRSYYGYGYWGQGTQVTVSS show?
Solution: low polyreactivity

Problem: // query polyreactivity (PSR sort gate) value for entry QVQLVESGGGLVQAGGSLRLSCAASGFILKFYAMGWYRQAPGKERELVAAISRRGGSTYYADSVKGRFTISRDNAKNTVYLQMNSLKPEDTAVYHCAKDGTTSRVSDSSDYWGQGTQVTVSS
Solution: high polyreactivity
